- experimental_target: LC3C (microtubule-associated protein 1A/1B light chain 3C) (human, UniProt Q9BXW4 1-126)
- Sequence (Q9BXW4 1-126): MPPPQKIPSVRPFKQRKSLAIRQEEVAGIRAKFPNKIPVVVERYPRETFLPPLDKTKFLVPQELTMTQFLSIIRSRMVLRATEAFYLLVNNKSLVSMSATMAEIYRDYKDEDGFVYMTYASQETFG
- assay_procedure: ITC; MicroCal VP-ITC, 30 °C; protein 10 μM in the cell, 10 μl injections of peptide (100-150 μM); 25 mM potassium phosphate, 150 mM NaCl, pH 7.0; no reducing agent; one site binding model; two independent measurements
- condition_details: both partners purified
pKd: −log10 of the molar value.

>  <binder>
SGGDDDWTHLSS (also called p62 AIM; source: synthetic peptide; bought: Genosphere Biotechnologies and Peptide Synthetics) [p62 WT-AIM peptide]

>  <pKd>
4.77

$$$$
